This collection of values is drawn from patent US20210070843A1.

Target: H7 A/Anhui/1-BALF_RG17/2013 HA on H7N9 AH/13 pseudo virus (influenza A virus A/Anhui/1-BALF_RG17/2013 (H7N9))
Assay: cell-based or functional assay
Measured IC50 of pseudo virus neutralization H7N9 AH/13 of individual entries

// solved cases for IC50 of pseudo virus neutralization H7N9 AH/13 follow
binder | value
P44 (antibody, V domains shown) VH: EVQLVESGGGLVQPGGSLRLSCAASGFTIDGWWIHWVRQAPGKGLEWVAGIWPFGGFTSYADSVKGRFTISADTSKNTAYLQMNSLRAEDTAVYYCARSYSGYSGDYWGQGTLVTVSS VL: DIQMTQSPSSLSASVGDRVTITCRASQDVNNNVAWYQQKPGKAPKLLIYWSSSLYSGVPSRFSGSGSGTDFTLTISSLQPEDFATYYCQQYYNFPVTFGQGTKVEIKR | > 200 µg/mL
P28 (antibody, V domains shown) VH: EVQLVESGGGLVQPGGSLRLSCAASGFTINNSGIHWVRQAPGKGLEWVASIWPSGGYTYYADSVKGRFTISADTSKNTAYLQMNSLRAEDTAVYYCARFNSSYSSGLMDYWGQGTLVTVSS VL: DIQMTQSPSSLSASVGDRVTITCRASQDVWYSVAWYQQKPGKAPKLLIYFATGLYSGVPSRFSGSGSGTDFTLTISSLQPEDFATYYCQQYFNWPVTFGQGTKVEIKR | > 200 µg/mL

Proceed to the following item.
Supply recorded IC50 of pseudo virus neutralization H7N9 AH/13 for S06 (antibody, V domains shown) VH: EVQLVESGGGLVQPGGSLRLSCAASGFTIGGGWIHWVRQAPGKGLEWVAFIGPYGGSTFYADSVKGRFTISADTSKNTAYLQMNSLRAEDTAVYYCARFNFGFWNHMDYWGQGTLVTVSS VL: DIQMTQSPSSLSASVGDRVTITCRASQDVSSWVAWYQQKPGKAPKLLIYGTTFLHSGVPSRFSGSGSGTDFTLTISSLQPEDFATYYCQQYYNGPLTFGQGTKVEIKR here.
> 200 µg/mL
